Hey, just so you know, these numbers are from paper PMC2995738.

TARGET ENTITY: IKKβ (Homo sapiens)
Construct: Human, recombinant IKKβ
Sequence (O14920 whole entry): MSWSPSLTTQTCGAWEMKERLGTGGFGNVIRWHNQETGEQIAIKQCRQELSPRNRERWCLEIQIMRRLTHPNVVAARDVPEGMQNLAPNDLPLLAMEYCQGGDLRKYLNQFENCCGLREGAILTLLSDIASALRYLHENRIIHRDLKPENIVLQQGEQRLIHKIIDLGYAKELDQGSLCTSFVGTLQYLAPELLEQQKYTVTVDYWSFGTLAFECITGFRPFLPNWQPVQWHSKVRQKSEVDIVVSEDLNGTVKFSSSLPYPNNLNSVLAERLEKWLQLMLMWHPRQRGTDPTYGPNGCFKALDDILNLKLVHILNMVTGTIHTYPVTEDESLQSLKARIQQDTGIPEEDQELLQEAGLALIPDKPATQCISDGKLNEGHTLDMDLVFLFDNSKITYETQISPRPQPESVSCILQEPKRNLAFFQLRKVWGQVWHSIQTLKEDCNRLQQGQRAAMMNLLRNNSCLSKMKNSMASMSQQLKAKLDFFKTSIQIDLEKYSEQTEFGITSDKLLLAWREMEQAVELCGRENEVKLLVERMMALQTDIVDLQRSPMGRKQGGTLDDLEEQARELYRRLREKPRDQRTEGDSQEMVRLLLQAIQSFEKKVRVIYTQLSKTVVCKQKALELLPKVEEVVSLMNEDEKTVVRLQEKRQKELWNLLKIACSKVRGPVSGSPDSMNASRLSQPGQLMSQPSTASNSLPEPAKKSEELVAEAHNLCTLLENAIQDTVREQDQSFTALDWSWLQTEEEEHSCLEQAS
ASSAY INFO: K-LISA IKKβ inhibitor screening kit (ELISA of GST-IκBα phosphorylation by recombinant IKKβ)
PROPERTY: EC50 (µM)
Write the answer as a number in µM, unit excluded.

Give its EC50 value. Item: "CC(=O)OC[C@@]12CC[C@H]3C(C)(C)CCC[C@]3(C)[C@H]1C[C@@H](C1=CC(=O)O[C@H]1O)O2"
13.2
